Activity in animals values, listed per item
- Tested on: Rattus norvegicus
- experiment_description: Anticonvulsant activity was measured in rats through seizures induced by maximal electroshock (MES) tests by oral administration of drug after 1 hour.
- Format: functional

| molecule | Activity in animals |
| --- | --- |
| Nc1ccc(N2C(=O)c3ccccc3C2=O)c(Cl)c1 | 100% |
| Cc1cccc(N)c1N1C(=O)c2ccccc2C1=O | 75% |
| O=C1NC(=O)C(c2ccccc2)(c2ccccc2)N1 [PHENYTOIN] | 100% |
| Cc1c(N)cccc1N1C(=O)c2ccccc2C1=O | 100% |
| Cc1cccnc1N1C(=O)c2ccccc2C1=O | 50% |

* * *

- experiment_description: dose eliciting minimal neurological toxicity in 50% of animals.
- Assay type: organism-based
- assay_setup: rat, in vivo

| compound | TD50 |
| --- | --- |
| O=C1NC(=O)C(c2ccccc2)(c2ccccc2)N1 [PHENYTOIN] | > 3000 mg/kg |
| Nc1ccc(N2C(=O)c3ccccc3C2=O)c(Cl)c1 | > 500 mg/kg |
| Cc1cccc(N)c1N1C(=O)c2ccccc2C1=O | > 500 mg/kg |
| Cc1c(N)cccc1N1C(=O)c2ccccc2C1=O | > 400 mg/kg |

* * *

- System: Mus musculus
- experiment_description: Neurotoxicity by rotarod test after intraperitoneal administration at a concentration of 300 mg/kg after 30 minutes; Inactive
- Type: functional, organism-based
- Design: dose 300 mg/kg
Activity calls are given as the source filed them. The calls are words filed in the database; no cut-off is given here.
parameter_measured: Activity

| cpd_smiles | result |
| --- | --- |
| COc1ccc(N2C(=O)c3ccccc3C2=O)c(OC)c1 | inactive |
| O=C1c2ccccc2C(=O)N1c1ccc([N+](=O)[O-])cc1 | inactive |
| Cc1c(N2C(=O)c3ccccc3C2=O)cccc1[N+](=O)[O-] | inactive |
| Cc1cccc([N+](=O)[O-])c1N1C(=O)c2ccccc2C1=O | inactive |
| Cc1c(N)cccc1N1C(=O)c2ccccc2C1=O | inactive |
| O=C1c2ccccc2C(=O)N1c1ccc([N+](=O)[O-])cc1Cl | inactive |
